These entries and their values trace back to PubChem BioAssay AID1845196.

Kindly supply the reported IC50 values for the records listed here.
Test system: 292921-168-R tumor spheroid viability;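 note: spheroids exposed to compounds for 7 days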
procedure text: Anticancer human tumor 292921-168-R patient-derived pancreatic carcinoma cell line growth inhibition
applied conditions: curve of first compound; second compound 94.9 pM; spheroids with HUVEC and MSC

Completed entries (count: 4):
compound	IC50
[2H]c1nc(C)nc([2H])c1-c1cc(NC[C@@H](C)c2cccc3c(C(=O)NC)ccnc23)ncn1 + COc1cc2c(cc1O)CCNC21CSC2c3c(OC(C)=O)c(C)c4c(c3C(COC1=O)N1C(O)C3Cc5cc(C)c(OC)c(O)c5C(C21)N3C)OCO4	> 10 µM
COc1cc(C)[nH]c(=O)c1CN1CCc2c(Cl)cc(C(OC)C3COC3)c(Cl)c2C1=O (stereo not given) + COc1cc2c(cc1O)CCNC21CSC2c3c(OC(C)=O)c(C)c4c(c3C(COC1=O)N1C(O)C3Cc5cc(C)c(OC)c(O)c5C(C21)N3C)OCO4	> 10 µM
Cc1cc(C)c(CNC(=O)c2cc(-c3ccc(CN4CCOCC4)cc3)cc3c2cnn3C2CCCC2)c(=O)[nH]1 + COc1cc2c(cc1O)CCNC21CSC2c3c(OC(C)=O)c(C)c4c(c3C(COC1=O)N1C(O)C3Cc5cc(C)c(OC)c(O)c5C(C21)N3C)OCO4	> 10 µM
CC(C)n1c(=O)n(C)c2cnc3cc(F)c(-c4ccc(OCCCN5CCCCC5)nc4)cc3c21 + COc1cc2c(cc1O)CCNC21CSC2c3c(OC(C)=O)c(C)c4c(c3C(COC1=O)N1C(O)C3Cc5cc(C)c(OC)c(O)c5C(C21)N3C)OCO4	< 0.0316 µM

Q: For the compound CC1COCCN1c1cc(-c2ccnn2C)c2ccnc(-c3ccn[nH]3)c2n1 (stereo not given) + COc1cc2c(cc1O)CCNC21CSC2c3c(OC(C)=O)c(C)c4c(c3C(COC1=O)N1C(O)C3Cc5cc(C)c(OC)c(O)c5C(C21)N3C)OCO4 , what IC50 is on record?
A: < 0.0316 µM
